- system-tested: T1, 2Ig-B7H3 without Fc fusion (human, UniProt Q5ZPR3-2 29-245, limits assumed)
- T1 construct: also called 2IgB7H3 (R&D)
- T1 sequence (looked up): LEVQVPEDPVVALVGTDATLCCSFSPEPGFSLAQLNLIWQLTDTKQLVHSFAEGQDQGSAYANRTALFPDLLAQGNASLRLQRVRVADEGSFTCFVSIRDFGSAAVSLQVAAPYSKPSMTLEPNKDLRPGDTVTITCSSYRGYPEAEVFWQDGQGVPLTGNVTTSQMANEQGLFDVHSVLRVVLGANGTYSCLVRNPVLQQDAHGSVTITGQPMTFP
- assay-comment: SPR, IgG on 2Ig-B7-H3 without Fc fusion
Below, each entry is listed with its recorded koff.
// note: answer is a bare numeric in s⁻¹

INSERT INTO results (binder, observed_property, reported) VALUES
  ('mouse/human chimeric 8H9 (ch8H9) IgG1 (antibody, V domains shown) VH: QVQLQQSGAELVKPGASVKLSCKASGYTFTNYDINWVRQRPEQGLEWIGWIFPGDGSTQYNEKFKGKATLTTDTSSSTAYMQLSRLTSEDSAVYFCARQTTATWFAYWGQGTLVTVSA VL: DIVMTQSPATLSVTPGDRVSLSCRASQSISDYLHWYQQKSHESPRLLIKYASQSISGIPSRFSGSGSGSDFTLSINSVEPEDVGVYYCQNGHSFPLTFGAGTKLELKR', 'koff', '8.73e-05');

Query: Fill in: koff of murine 8H9 (m8H9) IgG1 monoclonal antibody (antibody, V domains shown, 131I-labelled in the LAN-1 immunoreactivity assay; the label is not carried by the letters., also called MAb 8H9) VH: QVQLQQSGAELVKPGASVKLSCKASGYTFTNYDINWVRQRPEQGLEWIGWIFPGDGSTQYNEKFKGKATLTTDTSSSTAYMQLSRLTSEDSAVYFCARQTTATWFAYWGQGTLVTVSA VL: DIVMTQSPATLSVTPGDRVSLSCRASQSISDYLHWYQQKSHESPRLLIKYASQSISGIPSRFSGSGSGSDFTLSINSVEPEDVGVYYCQNGHSFPLTFGAGTKLELK is ___
Result: 2.24e-05
